Values were extracted from patent US20240279335A1.

# experimental-target: T1, human CD28-Fc chimera (R&D, Cat. No. 342-CD) (human, UniProt P10747 19-152)
# T1 construct: Bought reagent; also called recombinant human CD28-Fc fusion protein; recombinant CD28 fused to an Fc backbone; Fc part of the bought chimera not given
# procedure-text: SPR (Biacore), CD28-Fc immobilized on CM5 chip, VHH as analyte, multi-cycle kinetics, 1:1 model
Recorded Kd, one value per entry.
The response must be a number in nM with no trailing unit.

VHH 9B3 (VHH, also called 9B03) VHH: EVQLVESGGGLVQAGESLRLSCAASGSIASIRTMAWYRQAPGSQRELVAAISSGREVYYADSVKGRFTISRDNAKTTVYLQMNSLRPEDTAVYYCVVDMYWQDYWWWGQGTQVTVSS has a reported Kd of 0.000642

More entries:
VHH 5A3 (VHH, also called 5A03) VHH: EVQLVESGGGLVQAGESLRLSCAASGSIASINSMGWYRQAPGSQRELVAAINEKLLIYYADSVKGRFTISRDNAKTTVYLQMNSLRPEDTAVYYCVVDLYGSDYWDWGQGTQVTVSS has a reported Kd of 1.12
